System: CAKI-1 renal
Assay: NCI tumour cell line growth inhibition, 48 h
MEASURE: TGI

The examples below pair each entry with its known result.
Look up TGI: "C[C@H]1C2Cc3cc(O)ccc3[C@@]1(C)CCN2CCc1ccc(N)cc1" > 100 µM

Look up TGI: "O=c1oc(-c2ccc(O)cc2)cc2cc(O)ccc12" > 100 µM

New cases:
Look up TGI: "O=C(N=Nc1ccc(Cl)cc1Cl)NNc1ccc(Cl)cc1Cl" 52.9 µM

Look up TGI: "O=C1c2ccccc2C(=O)C12CCc1ccccc12" > 100 µM

Look up TGI: "Cn1c(=O)n(C)c2cc(CNCCNc3ccnc4cc(Cl)ccc34)ccc21" > 100 µM

Look up TGI: "Clc1ccc(-c2cc(-c3cc4cc(Br)ccc4nc3Cl)on2)cc1" > 50 µM

* * *

System: MDA-N
Test: NCI tumour cell line growth inhibition, 48 h
MEASURE: log10 TGI (log10 of the value in µM)
// units: µM (pre-log); metric: TGI; scale: log10

Look up log10 TGI: "Nc1nc(N)c2cc(Sc3ccc4ccccc4c3)ccc2n1" 0.67

New cases:
Look up log10 TGI: "O=C1CCCC/C1=C\c1ccc([N+](=O)[O-])cc1" 1.62

Look up log10 TGI: "CCCc1nc(Cl)nc(Cl)c1Cl" -0.40

Look up log10 TGI: "N=c1oc2ccccc2cc1-c1nc2ccccc2[nH]1" 1.61

* * *

Tested on: SR leukemia
Assay: NCI tumour cell line growth inhibition, 48 h
MEASURE: log10 TGI (log10 of the value in µM)
// units: µM (pre-log); metric: TGI; scale: log10

The examples below pair each entry with its known result.
Look up log10 TGI: COc1cc(OCc2cccc(-c3ccccc3)c2C)cc(OC)c1CN1CCCCC1C(=O)NCCOCCOCCN (stereo unspecified) 0.63

Look up log10 TGI: "Oc1ccc(/C=C/c2cccc(/C=C/c3ccc(O)c(O)c3)n2)cc1O" 1.16

Look up log10 TGI: "O=C(O)c1nc2ccc(C(F)(F)F)cc2nc1Nc1ccc(Cl)c(Cl)c1" 1.15

New cases:
Look up log10 TGI: "O=[N+]([O-])C(/C(Cl)=C(\Cl)Br)=C(/Cl)SCc1ccccc1" 1.13

Look up log10 TGI: N#CC1=C(N)N(/N=C/c2ccccc2)C(c2ccccc2)C1(C#N)C#N (stereo unspecified) 0.93

Look up log10 TGI: "CCCCCCCCCc1ccc(OCCOCCOCCOCCOCCOCCOCCOCCOCCO)cc1" 0.28

Look up log10 TGI: COC(=O)c1c(CC(Cc2ccc3c(c2)CCCC3)C(=O)O)ccc2c1CCCC2 (stereo unspecified) 1.96

* * *

Tested on: UACC-257 melanoma
Test: NCI tumour cell line growth inhibition, 48 h
# key: entry, value: TGI

Look up TGI: CC(C)=NOC(=O)CNC(=O)C(Cc1ccccc1)NC(=O)C(C)NC(=O)OC(C)(C)C (stereo not given) > 100 µM

Look up TGI: CC1=Nc2ccccc2SC(c2c(Cl)cccc2Cl)C1 (stereo not given) 3.3 µM

Look up TGI: "COC(=O)CCC1(CCC(=O)OC)CCCCCCC(CCC(=O)OC)(CCC(=O)OC)C(=O)C1=O" > 100 µM

Look up TGI: COc1cc(C2=NN(C(C)=O)C(c3cc(OC)c(OC)c(OC)c3)C2)ccc1O (stereo not given) > 100 µM

Look up TGI: CCCCCCCCC/C=C1/CC(CO)(COC(=O)CC(C(C)C)C(C)C)OC1=O (stereo not given) 26 µM

New cases:
Look up TGI: "FC(F)(F)c1ccc(-c2nn3ncccc3c2-c2ccnc(Nc3ccc4c(c3)OCCO4)n2)cc1" > 25 µM

Look up TGI: "Cc1cc(CCl)c(C)cc1CCl" 5.29 µM

Look up TGI: "COc1ccc(/C=C2\C[C@H]3[C@@H]4CCC5=C/C(=N/O)CC[C@]5(C)[C@H]4CC[C@]3(C)\C2=N\O)cc1" > 100 µM

Look up TGI: "Cn1cc(-c2cc(-c3cn(C)c4ccc(Cl)cc34)[nH]n2)c2cc(Cl)ccc21" 34.2 µM

Look up TGI: CC1(C)COC2C(N(Cc3ccccc3)Cc3ccccc3)C(=O)N21 (stereo not given) > 100 µM

Look up TGI: "C=C1C(=O)O[C@H]2[C@H]1CC/C(COC(=O)N[C@H]1C[C@H](O[C@H]3C[C@](O)(C(=O)CO)Cc4c(O)c5c(c(O)c43)C(=O)c3c(OC)cccc3C5=O)O[C@@H](C)[C@H]1O)=C\CC[C@@]1(C)O[C@@H]21" 13.7 µM

Look up TGI: "C1=Cc2nc1c(-c1ccccc1)c1ccc([nH]1)c(-c1ccccc1)c1nc(c(-c3ccccc3)c3ccc([nH]3)c2-c2ccccc2)C=C1" > 100 µM

* * *

Tested on: SW-620 colon
Experiment: NCI tumour cell line growth inhibition, 48 h
# key: entry, value: TGI

Look up TGI: "Clc1ccc(/C=C/c2ccc3ccccc3n2)cc1" > 100 µM

Look up TGI: "CC(=O)c1cccc(NC(=O)C(=O)c2c(O)c3ccccc3oc2=O)c1" > 100 µM

Look up TGI: "O=C1/C(=C\c2ccco2)Oc2ccccc21" > 100 µM

Look up TGI: "COc1ccc(-c2c(-c3ccccc3)c(C)c3ccccn23)cc1" > 100 µM

Look up TGI: COc1ccc(C2=NC(=O)NC2c2ccc(OC)cc2)cc1 (stereo not drawn) > 100 µM

* * *

Test system: OVCAR-8 ovarian
Assay: NCI tumour cell line growth inhibition, 48 h
# key: entry, value: TGI

The examples below pair each entry with its known result.
Look up TGI: "ClCc1cccc(Cn2cnc3c(Cl)nc(Cl)nc32)c1" 3.51 µM

Look up TGI: "O=c1[nH]c(SCc2cccc([N+](=O)[O-])c2)nc2nc[nH]c12" > 100 µM

Look up TGI: O=C(CC1(O)C(=O)Nc2ccc(F)cc21)c1ccc(C(=O)NCC2CCC3(CC2)OOC2(CCCCC2)OO3)cc1 (stereo not given) 35.8 µM

Look up TGI: "CCOC(=O)C1Cc2ccc3c4c(ccc(c24)C1)CC(C(=O)OCC)C3" > 100 µM

Look up TGI: O=C1CCC2(c3ccccc3)Nc3ccccc3N12 (stereo not given) > 100 µM

Look up TGI: CC1(C)COC2C(N(Cc3ccccc3)Cc3ccccc3)C(=O)N21 (stereo not given) > 100 µM

Look up TGI: CC(C)=NOC(=O)CNC(=O)C(Cc1ccccc1)NC(=O)C(C)NC(=O)OC(C)(C)C (stereo not given) > 100 µM

Look up TGI: "COc1ccc(C(=O)c2sc3nc(-c4ccccc4OC)ccc3c2N)cc1OC" > 100 µM

Look up TGI: "Nc1nc2ccc(Sc3ccc4nc(N)[nH]c(=O)c4c3)cc2c(=O)[nH]1" > 100 µM

Look up TGI: COc1cc(C2c3cc4c(cc3OC(NNS(=O)(=O)c3ccc(C)cc3)C2C)OCO4)cc(OC)c1OC (stereo not given) 46.8 µM

New cases:
Look up TGI: COC(=O)c1c(CC(Cc2ccc3c(c2)CCCC3)C(=O)O)ccc2c1CCCC2 (stereo not given) > 100 µM

Look up TGI: "Cn1c(=Nc2ccc(Cl)cc2)sc2ccccc21" > 100 µM

Look up TGI: "N#[N+]c1c([O-])c2ccccc2c2ccccc12" > 100 µM

Look up TGI: "COc1ccc(/C=C2\C[C@H]3[C@@H]4CCC5=C/C(=N/O)CC[C@]5(C)[C@H]4CC[C@]3(C)\C2=N\O)cc1" > 100 µM

Look up TGI: CC(NC(=O)Cc1ccc(C(F)(F)P(=O)(OCc2ccc([N+](=O)[O-])o2)N(C)CCCCCl)cc1)c1ccc(OCC2CCCCC2)c(C(N)=O)c1 (stereo not given) 41.9 µM

* * *

# key: entry, value: TGI
Test system: DMS 114 small cell lung
Assay: NCI tumour cell line growth inhibition, 48 h
State the answer as a number, implicitly in µM.

Look up TGI: "COc1ccc(/C=C2/C(=O)N(C(=O)c3ccccc3O)N=C2C)cc1" 2.25

New cases:
Look up TGI: COc1ccc(/C=C2\CCC(CCN(C)C)(C3=CCCC3)C2=O)cc1 (stereo not drawn) 31.2

* * *

Tested on: OVCAR-8 ovarian
Test: NCI tumour cell line growth inhibition, 48 h
MEASURE: GI50

The examples below pair each entry with its known result.
Quick check: GI50 on OVCAR-8 ovarian, item "FC(F)(F)c1ccc(-c2nn3ncccc3c2-c2ccnc(Nc3ccc4c(c3)OCCO4)n2)cc1" ? 13.2 µM

Quick check: GI50 on OVCAR-8 ovarian, item C/C(=C(/c1ccccc1)c1ccc(OCC(O)CNCCN2CCOCC2)cc1)c1ccccc1 (configuration not stated) ? 3.74 µM

Quick check: GI50 on OVCAR-8 ovarian, item COc1cc(OCc2cccc(-c3ccccc3)c2C)cc(OC)c1CN1CCCCC1C(=O)NCCOCCOCCN (configuration not stated) ? 3.26 µM

Quick check: GI50 on OVCAR-8 ovarian, item "COc1ccc(-c2cnnn2-c2nonc2-n2cccc2)cc1OC" ? 5.29 µM

Quick check: GI50 on OVCAR-8 ovarian, item "Cc1cn(-c2cccc(NC(=O)c3ccc(C)c(Nc4nccc(-c5cccnc5)n4)c3)c2)cn1" ? 1.1 µM

New cases:
Quick check: GI50 on OVCAR-8 ovarian, item "CC(=O)/C=C/c1ccc(Nc2c3ccccc3nc3occ(Cl)c23)cc1" ? 2.03 µM

Quick check: GI50 on OVCAR-8 ovarian, item "CCOC(=O)c1sc(-c2ccc(OS(=O)(=O)C[C@]34CCC(CC3=O)C4(C)C)c(C=O)c2)nc1C" ? 1.53 µM
